- assaySystem: Peptide 1: Biotin-…-[Tyr(PC)]-acid
- Sequence (peptide, as listed by the source): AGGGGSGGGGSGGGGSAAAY
- methodSummary: scFv ELISA
reportedMetric: OD450 (OD450)
Response body: numeric value in OD450, unit text excluded.

Solved cases below.
binder | OD450, OD450
PcOxP_DB04_H08 (scFv, V domains shown, scFv in periplasmic extract) VH: EVQLLESGGGLVQPGGSLRLSCAASGFTFSDGYMEWVRQAPGKGLEWVAASRNKANDYTTEYADSVKGRFTISRDNSKNTLYLQMNSLRAEDTAVYYCARDYYGSSYWYFDVWGQGTLVTVSS VL: DIQMTQSPSSLSASVGDRVTITCTASESLYSSKHKVHYLAWYQQKPGKAPKLLIYGASNLYSGVPSRFSGSGSGTDFTLTISSLQPEDFATYYCAQFYSYPLTFGGGTKVEIK | 0.85
PcOxP_DB01_H02 (scFv, V domains shown, scFv in periplasmic extract) VH: EVQLLESGGGLVQPGGSLRLSCAASGFTFSSYYMEWVRQAPGKGLEWVAASRNKANDYTTEYADSVKGRFTISRDNSKNTLYLQMNSLRAEDTAVYYCARDYYGSSYWYFDVWGQGTLVTVSS VL: DIVMTQSPDSLAVSLGERATINCTASSSLYSSKHKVHYLAWYQQKPGQPPKLLIYGASNRYIGVPDRFSGSGSGTDFTLTISSLQAEDVAVYYCAQFYSYPLTFGGGTKVEIK | 0.74

Consider now this further binder.
**Q:** For the binder PcOxP_DB01_G02 (scFv, V domains shown, scFv in periplasmic extract) VH: EVQLLESGGGLVQPGGSLRLSCAASGFLFSDFYMEWVRQAPGKGLEWVAASRNKANDYTTTYADSVKGRFTISRDNSKNTLYLQMNSLRAEDTAVYYCARDYYGSHYWYFDVWGQGTLVTVSS VL: DIVMTQSPDSLAVSLGERATINCTASESLYSSKHKVHYLAWYQQKPGQPPKLLIYGASNREIGVPDRFSGSGSGTDFTLTISSLQAEDVAVYYCAQFYFYPLTFGGGTKVEIK , give its reported OD450.
**A:** 0.82
